target: SERT Y107C/C109A (Rattus norvegicus, UniProt P31652, C109A/Y107C); construct: expressed in transfected cells; assay: MTSET inhibition of APP+ uptake in live cells (extracellular pathway cysteine accessibility); type: cell-based; conditions: Y107C/C109A, 15 min incubation with MTSET; read-out: half-maximal MTSET concentration for inhibition of APP+ accumulation
Measured endpoint: pIC50
When answering, recall that pIC50 equals minus log10 of the concentration in mol/L, and write that number alone.

// recorded pIC50 for C[N+](C)(C)CCSS(C)(=O)=O.[Br-] : 4.96

---

biological target: SERT S404C/C109A (Rattus norvegicus, UniProt P31652, C109A/S404C); construct: expressed in transfected cells; assay: MTSET inhibition of APP+ uptake in live cells (extracellular pathway cysteine accessibility); assay type: cell-based; details: S404C/C109A, constant concentration used in simplified assay; read-out: MTSET IC50 value (APP+ uptake inhibition)
Sequence (P31652 whole entry C109A/S404C): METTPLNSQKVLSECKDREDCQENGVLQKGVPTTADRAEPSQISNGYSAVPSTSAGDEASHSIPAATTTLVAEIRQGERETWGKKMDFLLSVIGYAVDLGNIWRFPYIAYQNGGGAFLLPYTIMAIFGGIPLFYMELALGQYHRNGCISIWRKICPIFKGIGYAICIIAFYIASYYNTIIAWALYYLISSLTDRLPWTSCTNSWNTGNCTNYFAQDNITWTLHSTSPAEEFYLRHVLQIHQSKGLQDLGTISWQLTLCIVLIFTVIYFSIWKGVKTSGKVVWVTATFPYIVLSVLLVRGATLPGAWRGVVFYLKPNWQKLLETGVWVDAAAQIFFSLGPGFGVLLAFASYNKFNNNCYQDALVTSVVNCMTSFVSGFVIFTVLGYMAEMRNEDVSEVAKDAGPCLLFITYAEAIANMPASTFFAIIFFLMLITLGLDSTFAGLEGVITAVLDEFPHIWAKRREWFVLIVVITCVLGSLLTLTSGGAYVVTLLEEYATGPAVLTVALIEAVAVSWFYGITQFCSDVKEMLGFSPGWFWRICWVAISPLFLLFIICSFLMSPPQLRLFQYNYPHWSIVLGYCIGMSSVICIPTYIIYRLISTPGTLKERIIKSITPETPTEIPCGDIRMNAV
Measured endpoint: pIC50
When answering, recall that pIC50 equals minus log10 of the concentration in mol/L, and write that number alone.

// recorded pIC50 for C[N+](C)(C)CCSS(C)(=O)=O.[Br-] : 5.70

Every entry's value here was drawn from paper PMC9503009.
